Recorded values, source patent US10533018B2.

tested on: clinical isolates of Klebsiella pneumonia (Klebs); experiment: Broth microdilution in Klebs clinical isolates; type: cell-based; details: Klebsiella pneumoniae, Klebs Isolate 4; LB broth
pIC50: −log10 of the molar value.
Measured property: pIC50

* [O-][n+]1ccccc1S [PT, 2-mercaptopyridine N-oxide] | 5.05
* O=C(Cc1ccccc1)N[C@@H]1C(=O)N2C(C(=O)O)=C(CSc3cccc[n+]3[O-])CS[C@H]12 [DB4-51] | 3.88

* * *

tested on: resistant E. coli HB101 K-12 transformed to express β-lactamase; experiment: microbe, parasite or virus in culture; type: cell-based, Escherichia coli; conditions: Escherichia coli
pIC50: −log10 of the molar value.
Measured property: pIC50

- CC1=C(C(=O)O)N2C(=O)[C@@H](NC(=O)[C@H](N)c3ccccc3)[C@H]2SC1: 4.48
- O=C(Cc1ccccc1)N[C@@H]1C(=O)N2C(C(=O)O)=C(CSc3cccc[n+]3[O-])CS[C@H]12: 4.41
